# tested on: UniProt P43005
# Sequence (P43005 whole entry): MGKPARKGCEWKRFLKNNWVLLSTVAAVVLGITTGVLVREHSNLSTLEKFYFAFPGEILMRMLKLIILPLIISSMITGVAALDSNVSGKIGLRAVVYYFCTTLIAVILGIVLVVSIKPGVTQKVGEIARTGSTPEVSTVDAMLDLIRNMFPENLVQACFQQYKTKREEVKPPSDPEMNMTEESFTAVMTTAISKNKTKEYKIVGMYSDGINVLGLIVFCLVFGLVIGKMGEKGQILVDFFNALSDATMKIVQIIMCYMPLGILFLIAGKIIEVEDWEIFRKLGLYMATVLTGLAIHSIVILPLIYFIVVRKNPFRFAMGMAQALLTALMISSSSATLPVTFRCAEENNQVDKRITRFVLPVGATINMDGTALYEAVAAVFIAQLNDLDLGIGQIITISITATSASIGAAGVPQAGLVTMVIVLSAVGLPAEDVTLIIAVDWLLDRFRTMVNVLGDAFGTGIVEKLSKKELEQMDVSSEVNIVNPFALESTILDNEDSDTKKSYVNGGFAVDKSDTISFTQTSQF
# protocol: Inhibition of human EAAT3 expressed in HEK293 cells by FLIPR membrane potential assay
pKi: −log10 of the molar value.
measured property: pKi

A: N[C@H](C(=O)O)[C@@H]1CC[C@H]1C(=O)O
B: N[C@H](C(=O)O)[C@@H]1CC[C@@H]1C(=O)O
Query: Return label of the item with the larger pKi. Candidates: A , B . Response format: the label of the selected entry.
Reply: B

====

# tested on: UniProt P43004
# protocol: Inhibition of human EAAT2 expressed in HEK293 cells by FLIPR membrane potential assay
measured property: Ki (µM)

A: N[C@H](C(=O)O)[C@@H]1CC[C@H]1C(=O)O
B: N[C@H](C(=O)O)[C@@H]1CC[C@@H]1C(=O)O
Query: Return label of the item with the larger Ki. Candidates: A , B . Response format: the label of the selected entry.
Reply: A
(A: 22 µM, B: 6.6 µM)
